- protocol.text: Stability in saline assessed as parent compond remaining using 99mTc(CO)3-labeled compound after 24 hrs by TLC method
- Format: physicochemical
- test.parameters: read-out: Stability
The entries below are paired with their reported remaining at 24 h.

I would be grateful if you could share the reported remaining at 24 h for `H-HYKHGKDGR-NH2` .
≥ 92%

# get_value(readout='remaining at 24 h', item= `H-HYKHGK-NH2` )
≥ 92%

* * *

- protocol.text: Metabolic stability in rat serum assessed as parent compound remaining using 99mTc(CO)3-labeled compound after 24 hrs by TLC method
- Assay type: ADME, cell-free
- test.parameters: read-out: Stability
remaining at 24 h: recorded values

INSERT INTO results (substance, measured_metric, result) VALUES
  ('H-HYKHGKDGR-NH2', 'remaining at 24 h', '≥ 92%');

Proceeding to the next substance to report its remaining at 24 h.
Which value of remaining at 24 h has been reported for `H-HYKHGK-NH2` in the records?
≥ 92%

Ref: ChEMBL document CHEMBL4257490
